biological target: MASP-2 (CCP1-CCP2-SP) (Homo sapiens); construct: 15 μL of Enzyme MASP-2 (CCP1-CCP2-SP) in Assay Buffer; test: Enzymatic Assay for MASP-2; conditions: fluorogenic substrate based on C2 cleavage site, room temperature, 20 mM HEPES pH 7.4
Structures can show the parent of a compound that is named as a salt.
VALUE_TYPE: Ki

// solved cases for Ki follow
| COMPOUND | VALUE_TYPE | MEASUREMENT |
| --- | --- | --- |
| Cn1cc(-c2cnc(NCCc3ccccc3)c(=O)n2CC(=O)NCc2cc(Cl)c3[nH]cnc3c2)cn1 | Ki | 2500 to 10000 nM |
| Cc1nc(N)ccc1CNC(=O)Cn1c(-c2cccnc2)cnc(NCCc2ccccc2)c1=O [Compound 18, trifluoroacetate] | Ki | < 500 nM |
| Cc1cc2[nH]c(CNC(=O)Cn3c(-c4ccccc4)cnc(NC4(c5ccccc5)CC4)c3=O)cc2cn1 [Compound 76, trifluoroacetate] | Ki | < 500 nM |

Record request: Ki value, item Cc1ncc(NCCc2ccccc2)c(=O)n1CC(=O)NCc1ccc2nc(N)[nH]c2c1 [Compound 3, trifluoroacetate]
< 500 nM

---

Property: Ki; scope: individual compounds
target: MASP-2 (CCP1-CCP2-SP) (Homo sapiens); construct: 15 μL of Enzyme MASP-2 (CCP1-CCP2-SP) in Assay Buffer; test: Enzymatic Assay for MASP-2; details: fluorogenic substrate based on C2 cleavage site, room temperature, 20 mM HEPES pH 7.4
Structures can show the parent of a compound that is named as a salt.

Record request: Ki value, item COc1cccc(C2(CNc3ncc(-c4ccccc4)n(CC(=O)NCc4cc5cnccc5[nH]4)c3=O)CC2)c1 [Compound 68, trifluoroacetate]
< 0.5 µM

Record request: Ki value, item COCCCCNc1ncc(-c2ccccc2)n(CC(=O)NCc2cc3cnccc3[nH]2)c1=O [Compound 124, trifluoroacetate]
< 0.5 µM

Record request: Ki value, item Cc1cccc(CNc2ncc(-c3ccccc3)n(CC(=O)NCc3cc4cnccc4[nH]3)c2=O)c1 [Compound 155]
< 0.5 µM

---

biological target: MASP-2 (CCP1-CCP2-SP) (Homo sapiens); construct: 15 μL of Enzyme MASP-2 (CCP1-CCP2-SP) in Assay Buffer; assay: Enzymatic Assay for MASP-2; details: fluorogenic substrate based on C2 cleavage site, room temperature, 20 mM HEPES pH 7.4
pKi: −log10 of the molar value. Where a name gives a salt, the structure may show the parent alone.
VALUE_TYPE: pKi

// solved cases for pKi follow
| MOLECULE | pKi |
| --- | --- |
| O=C(Cn1c(-c2ccccc2)cnc(NCCc2cccc(F)c2)c1=O)NCc1cc2cnccc2[nH]1 | > 6.30 |
| COc1ccccc1-c1cnc(NCCc2ccccc2)c(=O)n1CC(=O)NCc1ccc(N)nc1C [Compound 28, hydrochloride] | > 6.30 |
| Cc1nc(N)ccc1CNC(=O)Cn1c(-c2cnn(C)c2)cnc(NCCc2ccccc2)c1=O | > 6.30 |
| O=C(Cn1c(-c2ccccc2)cnc(N[C@@H](Cc2ccc(O)cc2)C(=O)O)c1=O)NCc1cc2cnccc2[nH]1 [Compound 119, trifluoroacetate] | > 6.30 |
| Cc1ccccc1CCNc1ncc(-c2ccccc2)n(CC(=O)NCc2cc3cnccc3[nH]2)c1=O | > 6.30 |
| Cc1nc(N)ccc1CNC(=O)Cn1c(-c2cncnc2)cnc(NCCc2ccccc2)c1=O | > 6.30 |
| COCCCCNc1ncc(-c2cnn(C)c2)n(CC(=O)NCc2cc3cnccc3[nH]2)c1=O [Compound 122, Trifluoroacetate] | > 6.30 |
| CC(C)(O)c1cccc(-c2cnc(NCCc3ccccc3)c(=O)n2CC(=O)NCc2cc3cnccc3[nH]2)c1 | > 6.30 |
| Cn1cc(-c2cnc(NCCc3ccccc3)c(=O)n2CC(=O)NCc2cnc3[nH]cc(Cl)c3c2)cn1 | 5.00 to 5.60 |
| O=C(Cn1c(-c2ccccc2)cnc(NCCc2ccccc2F)c1=O)NCc1cc2cnccc2[nH]1 | > 6.30 |

Record request: pKi value, item "COc1cccc(CCNc2ncc(-c3ccccc3)n(CC(=O)NCc3cc4cnccc4[nH]3)c2=O)c1"
> 6.30

---

biological target: MASP-2 (CCP1-CCP2-SP) (Homo sapiens); construct: 15 μL of Enzyme MASP-2 (CCP1-CCP2-SP) in Assay Buffer; assay: Enzymatic Assay for MASP-2; type: biochemical; details: fluorogenic substrate based on C2 cleavage site, room temperature, 20 mM HEPES pH 7.4
pKi: −log10 of the molar value. Counter-ions that a name gives are not always drawn.
VALUE_TYPE: pKi

// solved cases for pKi follow
| COMPOUND | pKi |
| --- | --- |
| O=C(Cn1c(-c2cnn3c2CCC3)cnc(NCCc2ccccc2)c1=O)NCc1cc2cnccc2[nH]1 [Compound 115] | > 6.30 |
| CNc1ncc(-c2ccccc2)n(CC(=O)NCc2cc3cnccc3[nH]2)c1=O [Compound 148] | > 6.30 |
| CC(C)Nc1cnc(NCCc2ccccc2)c(=O)n1CC(=O)NCc1cc2cnccc2[nH]1 [Compound 160] | 5.00 to 5.60 |
| O=C(Cn1c(-c2cccc(C3(O)COC3)c2)cnc(NCCc2ccccc2)c1=O)NCc1cc2cnccc2[nH]1 [Compound 99] | > 6.30 |
| Cc1nc(N)ccc1CNC(=O)Cn1c(-c2ccccc2)c(Cl)nc(N2CCCC2)c1=O [Compound 40] | > 6.30 |
| CCOC(=O)CNc1ncc(-c2ccccc2)n(CC(=O)NCc2cc3cnccc3[nH]2)c1=O [Compound 117] | > 6.30 |
| Cc1nccc2[nH]c(CNC(=O)Cn3c(-c4ccccc4)cnc(NCCc4ccccc4)c3=O)cc12 [Compound 72, trifluoroacetate] | > 6.30 |
| O=C(Cn1c(-c2ccccc2)cnc(NCCCc2ccccc2)c1=O)NCc1cc2cnccc2[nH]1 [Compound 48, trifluoroacetate] | > 6.30 |
| COc1ccc(CNc2ncc(-c3ccccc3)n(CC(=O)NCc3cc4cnccc4[nH]3)c2=O)cc1 [Compound 150] | > 6.30 |
| O=C(Cn1c(-c2ccccc2)cnc(NCc2cc(F)cc(F)c2)c1=O)NCc1cc2cnccc2[nH]1 [Compound 154] | > 6.30 |

Record request: pKi value, item Cn1cc(-c2cnc(NCCc3ccccc3)c(=O)n2CC(=O)NCc2ccc3c(c2)CCNC3)cn1 [Compound 80]
5.00 to 5.60

Record request: pKi value, item O=C(Cn1c(-c2ccccc2)cnc(NCc2ccc(F)cc2)c1=O)NCc1cc2cnccc2[nH]1 [Compound 147]
> 6.30

Record request: pKi value, item Cn1nccc1-c1cnc(NCCc2ccccc2)c(=O)n1CC(=O)NCc1cc2cnccc2[nH]1 [Compound 105]
> 6.30

Record request: pKi value, item CS(=O)(=O)NCc1cccc(-c2cnc(NCCc3ccccc3)c(=O)n2CC(=O)NCc2cc3cnccc3[nH]2)c1 [Compound 95]
> 6.30

Record request: pKi value, item O=C(Cn1c(-c2ccccc2)cnc(NCc2cccc(C(F)(F)F)c2)c1=O)NCc1cc2cnccc2[nH]1 [Compound 152]
> 6.30

Record request: pKi value, item O=C(Cn1c(-c2ccccc2)cnc(NCc2cccc(F)c2)c1=O)NCc1cc2cnccc2[nH]1 [Compound 151]
> 6.30

Record request: pKi value, item O=C(Cn1c(-c2ccccc2)cnc(N2CCC3(CCNCC3)C2)c1=O)NCc1cc2cnccc2[nH]1 [Compound 54, Di-Trifluoroacetate]
5.60 to 6.30

Record request: pKi value, item Nc1nc2ccc(CNC(=O)Cn3c(Br)cnc(NCCc4ccccc4)c3=O)cc2[nH]1 [Compound 8]
> 6.30

Record request: pKi value, item CCOCCCNc1ncc(-c2cnn(C)c2)n(CC(=O)NCc2cc3cnccc3[nH]2)c1=O [Compound 129, trifluoroacetate]
> 6.30

Record request: pKi value, item Cc1nc(N)ccc1CNC(=O)Cn1c(-c2ccccc2)cnc(N2CCCC2)c1=O [Compound 43]
> 6.30

Record request: pKi value, item O=C(Cn1c(-c2cccc(C(O)C(F)(F)F)c2)cnc(NCCc2ccccc2)c1=O)NCc1cc2cnccc2[nH]1 (centres unmarked) [Compound 97]
> 6.30

---

Property: pKi; scope: individual compounds
Molecular target: MASP-2 (CCP1-CCP2-SP) (Homo sapiens, UniProt O00187)
Construct: 15 μL of Enzyme MASP-2 (CCP1-CCP2-SP) in Assay Buffer
Sequence (O00187 445-686 limits assumed): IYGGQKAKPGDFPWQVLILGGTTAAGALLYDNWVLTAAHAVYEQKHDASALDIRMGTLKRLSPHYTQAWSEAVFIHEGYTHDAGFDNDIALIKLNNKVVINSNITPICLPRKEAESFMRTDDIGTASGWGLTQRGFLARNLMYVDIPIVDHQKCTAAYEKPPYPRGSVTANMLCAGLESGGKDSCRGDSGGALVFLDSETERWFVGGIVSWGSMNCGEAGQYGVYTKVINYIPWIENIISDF
Sequence (O00187 298-444 partner limits assumed): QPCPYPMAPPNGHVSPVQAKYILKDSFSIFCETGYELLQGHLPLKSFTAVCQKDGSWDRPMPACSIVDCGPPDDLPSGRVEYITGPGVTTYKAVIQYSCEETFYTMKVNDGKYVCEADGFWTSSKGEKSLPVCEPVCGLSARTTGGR
Assay: Enzymatic Assay for MASP-2
Conditions: fluorogenic substrate based on C2 cleavage site, room temperature, 20 mM HEPES pH 7.4
Experimental: Enzymatic Assay for MASP-2 The MASP-2 assay utilizes a fluorogenic substrate, based on the cleavage site for its natural substrate C2. The assay is run at room temperature in an assay buffer containing 20 mM HEPES, pH 7.4, 140 mM NaCl and 0.1% Tween 20. […] The MASP-2 assay protocol is carried out as follows. […] After 20 min at room temperature, 15 μL of a stop solution (0.1 M acetic acid) is added, mixed and the plates are read on a SpectraMax i3x Microplate Reader and exported as Excel files. […]
pKi: −log10 of the molar value. Where a name gives a salt, the structure may show the parent alone.

// solved cases for pKi follow
| COMPOUND | SUBJECT_OF_TEST | pKi |
| --- | --- | --- |
| Cn1cc(-c2cnc(NCCc3ccccc3)c(=O)n2CC(=O)NCc2cnc3[nH]ccc3c2)cn1 | MASP-2 (CCP1-CCP2-SP) (Homo sapiens, UniProt O00187) | < 5.00 |
| O=C(Cn1c(-c2ccccc2F)cnc(NCCc2ccccc2)c1=O)NCc1cc2cnccc2[nH]1 [Compound 86, Trifluoroacetate] | MASP-2 (CCP1-CCP2-SP) (Homo sapiens, UniProt O00187) | > 6.30 |
| O=C(Cn1c(-c2ccccc2)cnc(NCC2(c3ccc(Cl)cc3)CC2)c1=O)NCc1cc2cnccc2[nH]1 [Compound 57, trifluoroacetate] | MASP-2 (CCP1-CCP2-SP) (Homo sapiens, UniProt O00187) | > 6.30 |
| Cc1nc(N)ccc1CNC(=O)Cn1c(-c2ccccc2)c(Cl)nc(NC2COC2c2ccccc2)c1=O (stereo not drawn) | MASP-2 (CCP1-CCP2-SP) (Homo sapiens, UniProt O00187) | 5.60 to 6.30 |

Tell me reported pKi for COCCNc1ncc(-c2ccccc2)n(CC(=O)NCc2cc3cnccc3[nH]2)c1=O [Compound 120, trifluoroacetate] , tested with MASP-2 (CCP1-CCP2-SP) (Homo sapiens, UniProt O00187).
> 6.30

Tell me reported pKi for "CC(C)Nc1ncc(-c2ccccc2)n(CC(=O)NCc2cc3cnccc3[nH]2)c1=O" , tested with MASP-2 (CCP1-CCP2-SP) (Homo sapiens, UniProt O00187).
> 6.30

Tell me reported pKi for Cn1cc(-c2cnc(NCC(F)(F)c3ccccc3)c(=O)n2CC(=O)NCc2cc3cnccc3[nH]2)cn1 [Compound 123, Trifluoroacetate] , tested with MASP-2 (CCP1-CCP2-SP) (Homo sapiens, UniProt O00187).
> 6.30

Tell me reported pKi for Cc1nc(N)ccc1CNC(=O)Cn1c(Cc2ccccc2)cnc(NCCc2ccccc2)c1=O [Compound 19, trifluoroacetate] , tested with MASP-2 (CCP1-CCP2-SP) (Homo sapiens, UniProt O00187).
> 6.30

Tell me reported pKi for O=C(Cn1c(-c2ccccc2)cnc(NC2(c3ccccc3)CC2)c1=O)NCc1cc2cnccc2[nH]1 [Compound 66, trifluoroacetate] , tested with MASP-2 (CCP1-CCP2-SP) (Homo sapiens, UniProt O00187).
> 6.30

Tell me reported pKi for "CNc1nc(Cl)c(-c2ccccc2)n(CC(=O)NCc2ccc(N)nc2C)c1=O" , tested with MASP-2 (CCP1-CCP2-SP) (Homo sapiens, UniProt O00187).
5.60 to 6.30

Tell me reported pKi for "Cc1ccc(CCNc2ncc(-c3ccccc3)n(CC(=O)NCc3cc4cnccc4[nH]3)c2=O)cc1" , tested with MASP-2 (CCP1-CCP2-SP) (Homo sapiens, UniProt O00187).
> 6.30

Tell me reported pKi for "Cc1nc(N)ccc1CNC(=O)Cn1c(-c2ccc(Cl)cc2)cnc(NCCc2ccccc2)c1=O" , tested with MASP-2 (CCP1-CCP2-SP) (Homo sapiens, UniProt O00187).
> 6.30

Tell me reported pKi for "O=C(Cn1c(-c2ccccc2)cnc(NCCc2ccccc2)c1=O)NCc1cc2c(s1)CNCC2" , tested with MASP-2 (CCP1-CCP2-SP) (Homo sapiens, UniProt O00187).
> 6.30

Tell me reported pKi for O=C(Cn1c(-c2ccccc2)cnc(NC2(c3ccc(F)c(F)c3)CC2)c1=O)NCc1cc2cnccc2[nH]1 [Compound 74, trifluoroacetate] , tested with MASP-2 (CCP1-CCP2-SP) (Homo sapiens, UniProt O00187).
> 6.30

Tell me reported pKi for "Nc1nc2cc(CNC(=O)Cn3c(-c4ccccc4)cnc(NCCc4ccccc4)c3=O)ccc2[nH]1" , tested with MASP-2 (CCP1-CCP2-SP) (Homo sapiens, UniProt O00187).
> 6.30
